- System name: P2X7R (Homo sapiens)
- Construct: expressed in transfected cells; host or cells: HEK-293
- Sequence (Q99572 whole entry): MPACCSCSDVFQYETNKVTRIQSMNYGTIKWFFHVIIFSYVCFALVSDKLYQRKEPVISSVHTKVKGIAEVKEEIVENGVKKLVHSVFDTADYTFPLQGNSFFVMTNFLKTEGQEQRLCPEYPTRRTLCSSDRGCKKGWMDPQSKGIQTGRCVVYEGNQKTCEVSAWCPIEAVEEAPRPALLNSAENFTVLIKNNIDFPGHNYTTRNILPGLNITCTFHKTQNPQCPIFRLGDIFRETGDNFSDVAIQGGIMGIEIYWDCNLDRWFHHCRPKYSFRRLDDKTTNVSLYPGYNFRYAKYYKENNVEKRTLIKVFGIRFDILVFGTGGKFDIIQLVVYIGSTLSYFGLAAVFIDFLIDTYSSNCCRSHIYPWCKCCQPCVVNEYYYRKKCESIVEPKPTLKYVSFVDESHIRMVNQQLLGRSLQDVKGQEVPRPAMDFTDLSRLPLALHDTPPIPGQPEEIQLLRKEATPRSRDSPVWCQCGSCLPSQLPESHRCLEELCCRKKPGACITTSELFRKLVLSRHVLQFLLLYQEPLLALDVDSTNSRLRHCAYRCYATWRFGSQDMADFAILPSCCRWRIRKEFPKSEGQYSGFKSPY
- Protocol text: Yo-Pro-1 uptake assay (Yo-Pro-1 Assay) in HEK-293 cells transiently transfected with P2X7R
- Type: cell-based
- Settings: HEK293; compound at 5 μM; 30 μM bzATP stimulus; reading 1 hour after stimulation; transfected HEK-293 cells; read-out: Percentage of activity remains in the presence of the compound at 5 μM, P2X7R (Yo-Pro-1 Assay)
Structures can show the parent of a compound that is named as a salt.
# note: exactly 40% is not below, so it is Condition not met; use Condition met for remaining activity at 5 µM strictly under it

Consider the following illustrative entries.
O=C(NCCc1ccccc1)C1CCN(S(=O)(=O)c2ccc(N3CCCCC3)cc2)CC1 ... Condition met
O=C(NCCc1ccccc1)C1CCN(S(=O)(=O)c2ccc(N3CCCC3)cc2)CC1 ... Condition met
CS(=O)(=O)c1ccc(N2CCCC(NC(=O)CCc3ccccc3)C2)cc1 (stereo not drawn) ... Condition met
CCCCNc1ccc(S(=O)(=O)N2CCC(C(=O)O)CC2)cc1 ... Condition not met
O=C(CCc1ccccc1)N1CCNCC1 [#29, hydrochloride] ... Condition not met

(Q) # strict comparison: is reported remaining activity at 5 µM < 40%? input = CC1CCCCN1c1ccc(S(=O)(=O)N2CCCC(NC(=O)CCc3ccccc3)C2)cc1 (stereo not drawn)
(A) Condition met

(Q) Please let me know if O=C(CCc1ccccc1)N1CCN(S(=O)(=O)c2ccc(N3CCCC3)cc2)CC1 shows remaining activity at 5 µM below 40%.
(A) Condition met

(Q) # check: remaining activity at 5 µM < 40% for O=C(CCc1ccccc1)NC1CCCN(S(=O)(=O)c2ccc(OCc3ccccc3)cc2)C1 (stereo not drawn)
(A) Condition met

(Q) In the record for CC1CCN(c2ccc(S(=O)(=O)N3CCCC(NC(=O)CCc4ccccc4)C3)cc2)CC1 (stereo not drawn) , is remaining activity at 5 µM less than 40%?
(A) Condition met

---

- System name: Human P2X4 receptor (P2X4R) (Homo sapiens, UniProt Q99571)
- Construct: expressed in transfected cells; host or cells: HEK-293
- Sequence (Q99571 whole entry): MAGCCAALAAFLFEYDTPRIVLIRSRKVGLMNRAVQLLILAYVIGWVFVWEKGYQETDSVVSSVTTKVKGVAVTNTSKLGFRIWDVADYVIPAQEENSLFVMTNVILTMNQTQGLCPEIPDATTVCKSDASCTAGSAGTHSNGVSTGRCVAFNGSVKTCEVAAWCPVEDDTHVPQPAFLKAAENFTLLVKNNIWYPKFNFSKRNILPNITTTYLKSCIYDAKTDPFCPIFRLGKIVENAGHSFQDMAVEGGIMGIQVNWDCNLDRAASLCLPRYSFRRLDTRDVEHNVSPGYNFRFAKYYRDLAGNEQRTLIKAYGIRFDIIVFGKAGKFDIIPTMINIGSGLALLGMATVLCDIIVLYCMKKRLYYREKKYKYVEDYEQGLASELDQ
- Protocol text: Receptor-mediated calcium entrance assay (Calcium Assay), P2X4R transfected HEK-293 cells
- Assay type: cell-based
- Settings: HEK293, compound at 5 μM, 1 mM ATP stimulus, read-out: Percentage of activity remains in the presence of the compound at 5 μM, P2X4R (Calcium Assay)
Structures can show the parent of a compound that is named as a salt.
# note: boundary value 70% maps to False; remaining activity at 5 µM below it maps to True

Please review the following examples before continuing.
O=C(CCc1ccccc1)NC1CCCN(S(=O)(=O)c2ccc(N3CCCCC3)cc2)C1 (stereo not drawn) ... True
COCCOc1ccc(S(=O)(=O)N2CCCC(NC(=O)CCc3ccccc3)C2)cc1 (stereo not drawn) ... False
CC(C)COc1ccc(S(=O)(=O)N2CCCC(NC(=O)CCc3ccccc3)C2)cc1 (stereo not drawn) ... False
O=C(CCc1ccccc1)NC1CCCN(S(=O)(=O)c2ccc(N3CCC(C(F)(F)F)CC3)cc2)C1 (stereo not drawn) ... True
COc1ccc(S(=O)(=O)N2CCCC(NC(=O)CCc3ccccc3)C2)cc1 (stereo not drawn) ... True
CC1CCCN(c2ccc(S(=O)(=O)N3CCCC(NC(=O)CCc4ccccc4)C3)cc2)C1 (stereo not drawn) ... True
CN1CCN(c2ccc(S(=O)(=O)N3CCCC(NC(=O)CCc4ccccc4)C3)cc2)CC1 (stereo not drawn) ... True
O=C(CCc1ccccc1)N1CCN(S(=O)(=O)c2ccc(N3CCOCC3)cc2)CC1 ... False

(Q) I'd appreciate it if you could check whether CC(C)(C)OC(=O)N1CCN(c2ccc(S(=O)(=O)N3CCN(C(=O)CCc4ccccc4)CC3)cc2)CC1 has remaining activity at 5 µM smaller than 70%.
(A) False

(Q) Is remaining activity at 5 µM of O=S(=O)(c1ccccc1)C1CN(S(=O)(=O)c2ccc(N3CCOCC3)cc2)C1 strictly below 70%?
(A) True

(Q) Hello, I'm reviewing records and need to know if remaining activity at 5 µM of O=C(CCc1ccccc1)NC1CCCN(S(=O)(=O)c2ccc(F)cc2)C1 (stereo not drawn) is below 70%. Could you check?
(A) True

(Q) Record O=C(CCc1ccccc1)NC1CCCN(S(=O)(=O)c2ccc(N3CCCCC3)c(Cl)c2)C1 (stereo not drawn) : is its remaining activity at 5 µM strictly below 70%?
(A) True

(Q) Is 70% strictly greater than the molecule's reported remaining activity at 5 µM? molecule: CC(C)(C)OC(=O)N1CCN(c2ccc(S(=O)(=O)N3CCC(C(=O)NCCc4ccccc4)CC3)cc2)CC1
(A) True

(Q) Threshold test, remaining activity at 5 µM < 70%: CCOc1ccc(S(=O)(=O)N2CCCC(NC(=O)CCc3ccccc3)C2)cc1 (stereo not drawn)
(A) True

(Q) Please check: remaining activity at 5 µM for CCCCNc1ccc(S(=O)(=O)N2CCCC(NC(=O)CCc3ccccc3)C2)cc1 (stereo not drawn) , strictly under 70% or not?
(A) True

(Q) Consider the molecule O=C(CCc1ccccc1)N1CCNCC1 [#29, hydrochloride] . Is its remaining activity at 5 µM strictly less than 70%?
(A) True

(Q) Strictly below 70%: is that where remaining activity at 5 µM of O=C(CCc1ccccc1)NC1CCCN(c2ccc(S(=O)(=O)N3CCCCC3)cc2)C1 (stereo not drawn) sits?
(A) True
